Measured on: huLTBP1 proTGFβ1 (Homo sapiens, UniProt P01137+Q14766)
Sequence (P01137 30-390): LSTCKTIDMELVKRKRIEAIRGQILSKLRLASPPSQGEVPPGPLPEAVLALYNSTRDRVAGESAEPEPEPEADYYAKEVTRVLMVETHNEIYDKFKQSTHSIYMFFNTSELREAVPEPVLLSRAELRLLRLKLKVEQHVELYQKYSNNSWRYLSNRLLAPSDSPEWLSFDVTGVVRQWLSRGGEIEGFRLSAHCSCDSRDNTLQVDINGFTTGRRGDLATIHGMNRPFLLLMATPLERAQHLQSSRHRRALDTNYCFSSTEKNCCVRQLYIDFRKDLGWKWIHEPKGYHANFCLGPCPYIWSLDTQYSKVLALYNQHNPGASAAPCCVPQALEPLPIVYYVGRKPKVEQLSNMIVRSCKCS
Sequence (Q14766 347-1721 limits assumed): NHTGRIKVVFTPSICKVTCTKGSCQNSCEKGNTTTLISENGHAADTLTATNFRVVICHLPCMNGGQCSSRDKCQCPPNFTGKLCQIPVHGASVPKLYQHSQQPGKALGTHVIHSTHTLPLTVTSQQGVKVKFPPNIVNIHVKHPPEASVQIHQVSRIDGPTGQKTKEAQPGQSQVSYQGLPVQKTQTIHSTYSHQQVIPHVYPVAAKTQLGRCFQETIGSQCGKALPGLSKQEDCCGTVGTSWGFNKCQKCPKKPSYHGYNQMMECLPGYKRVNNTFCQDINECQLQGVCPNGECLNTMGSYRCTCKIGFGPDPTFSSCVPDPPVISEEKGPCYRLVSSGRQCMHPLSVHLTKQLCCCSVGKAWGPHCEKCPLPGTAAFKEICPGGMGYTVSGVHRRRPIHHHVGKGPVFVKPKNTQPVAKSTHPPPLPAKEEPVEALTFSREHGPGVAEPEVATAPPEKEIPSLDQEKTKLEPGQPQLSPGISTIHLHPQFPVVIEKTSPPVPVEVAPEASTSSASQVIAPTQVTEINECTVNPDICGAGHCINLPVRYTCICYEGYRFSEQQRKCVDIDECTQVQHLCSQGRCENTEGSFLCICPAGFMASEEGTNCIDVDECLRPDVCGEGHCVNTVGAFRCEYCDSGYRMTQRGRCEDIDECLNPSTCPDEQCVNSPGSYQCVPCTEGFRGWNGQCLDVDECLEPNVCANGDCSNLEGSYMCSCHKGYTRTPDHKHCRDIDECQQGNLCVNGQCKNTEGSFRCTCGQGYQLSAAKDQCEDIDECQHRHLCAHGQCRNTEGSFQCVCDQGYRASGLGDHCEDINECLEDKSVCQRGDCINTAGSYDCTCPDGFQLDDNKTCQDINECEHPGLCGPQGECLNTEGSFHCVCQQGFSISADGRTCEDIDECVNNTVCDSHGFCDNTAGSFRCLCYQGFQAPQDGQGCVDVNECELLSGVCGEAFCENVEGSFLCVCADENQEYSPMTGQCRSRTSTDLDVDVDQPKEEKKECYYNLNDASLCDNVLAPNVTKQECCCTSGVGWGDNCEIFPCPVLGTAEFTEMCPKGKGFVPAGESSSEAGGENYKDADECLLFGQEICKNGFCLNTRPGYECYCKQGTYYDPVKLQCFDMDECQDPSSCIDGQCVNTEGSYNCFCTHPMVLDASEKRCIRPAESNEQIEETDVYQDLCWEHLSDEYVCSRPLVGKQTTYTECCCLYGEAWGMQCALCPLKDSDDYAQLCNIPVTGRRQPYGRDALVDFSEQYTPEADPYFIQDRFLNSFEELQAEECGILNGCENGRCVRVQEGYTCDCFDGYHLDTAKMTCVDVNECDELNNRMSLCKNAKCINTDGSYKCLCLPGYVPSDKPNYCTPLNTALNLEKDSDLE
Assay remarks: Octet (BLI) binding, IgG captured on AHC tips, antigen at 100 nM
Setup conditions: Table 9; cycle 3; IgG1-agly; 1:1 fit
Readout name: Hu LTBP1-proTGFβ1 Kon (M⁻¹ s⁻¹)
Write it as a number; the unit M⁻¹ s⁻¹ goes unstated.

Given the molecule SR-AB31: cycle 3 light chain-optimized antibody, lineage SR-AB22; CDRs SEQ ID NO: 124-129 (antibody, V domains shown) VH: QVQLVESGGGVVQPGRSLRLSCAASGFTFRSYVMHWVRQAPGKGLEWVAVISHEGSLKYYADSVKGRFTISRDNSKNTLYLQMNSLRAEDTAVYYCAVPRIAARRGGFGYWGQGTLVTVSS VL: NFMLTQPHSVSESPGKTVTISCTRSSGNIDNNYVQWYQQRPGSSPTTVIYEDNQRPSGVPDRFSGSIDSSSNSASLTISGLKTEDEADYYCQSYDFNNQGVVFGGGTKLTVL , what is its reported Hu LTBP1-proTGFβ1 Kon? 240000

I would be grateful if you could share the reported Hu LTBP1-proTGFβ1 Kon for SR-AB40: cycle 3 light chain-optimized antibody, lineage SR-AB23; CDRs SEQ ID NO: 154-159 (antibody, V domains shown) VH: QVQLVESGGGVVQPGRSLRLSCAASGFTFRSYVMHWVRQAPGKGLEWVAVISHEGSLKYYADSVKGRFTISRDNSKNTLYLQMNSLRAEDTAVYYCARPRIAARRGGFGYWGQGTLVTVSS VL: NFMLTQPHSVSESPGKTVTISCTRSSGNIDNNYVQWYQQRPGSSPTTVIYEDNQRPSGVPDRFSGSIDSSSNSASLTISGLKTEDEADYYCQSYDYSNQGVVFGGGTKLTVL . 150000

What value of Hu LTBP1-proTGFβ1 Kon has been reported for the following molecule? SR-AB42: cycle 3 antibody, lineage SR-AB23; CDRs SEQ ID NO: 166-171; HCVR SEQ ID NO: 318, LCVR SEQ ID NO: 319 (antibody, V domains shown) VH: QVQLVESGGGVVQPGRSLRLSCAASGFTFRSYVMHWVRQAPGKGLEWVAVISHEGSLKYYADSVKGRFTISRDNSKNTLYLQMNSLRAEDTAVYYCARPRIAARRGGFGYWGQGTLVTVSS VL: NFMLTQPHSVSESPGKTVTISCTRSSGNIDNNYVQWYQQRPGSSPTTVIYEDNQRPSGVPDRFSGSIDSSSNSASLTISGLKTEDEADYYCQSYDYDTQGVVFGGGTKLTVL 154000

Which Hu LTBP1-proTGFβ1 Kon value belongs to SR-AB45: cycle 3 light chain-optimized antibody, lineage SR-AB23; CDRs SEQ ID NO: 184-189 (antibody, V domains shown) VH: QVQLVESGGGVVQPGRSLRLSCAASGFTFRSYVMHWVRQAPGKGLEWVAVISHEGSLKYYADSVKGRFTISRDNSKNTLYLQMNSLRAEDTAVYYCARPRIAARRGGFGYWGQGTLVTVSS VL: NFMLTQPHSVSESPGKTVTISCTRSSGAIDDNYVQWYQQRPGSSPTTVIYEDFQRPSGVPDRFSGSIDSSSNSASLTISGLKTEDEADYYCQSYDDDLQGVVFGGGTKLTVL ? 310000
